Test protocol: Drug repurposing screens with cells derived from glioblastoma tumor samples (AID 1345199); note: % is set by controls: 0 for no effect and ±100 for the full control effect; nearly all actives have a fitted effect of over 40% in size
Condition summary: GBM patient neurospheres viability, ATP luminescence, 48 h; at 45.9 µM (top of the series); tumour line D
Records with an inconclusive call do not appear. Active and inactive are the calls of the source. Calls come from the whole dose curve; as a rule, active = well fitted inhibition curve with a large enough effect; inconclusive = small, poorly fitted or top-dose-only effect; inactive = flat fitted curve, though single readings scatter. Where a SMILES comes first, the peptide text is derived from it. Bridges are numbered along the chain shown (N, C = ends). [ ]: non-standard residue; d: D form. The star is where a group is joined. X2 = CC[C@H](C)CCCCC(=O)*; Dab = NCC[C@H](N)C(=O)O
Value kind: activity, negative = cell killing

These recorded examples may help you get a feel for the data.
NNc1nnc(Cc2ccncc2)c2ccccc12	-26.1% (inactive)
CCN(CC)c1ccc(N=Nc2ccc(S(=O)(=O)N(C)C)cc2)c(S(=O)(=O)NCC[n+]2ccccc2)c1	-3.67% (inactive)
CNC[C@@H]1CC[C@@H](N)[C@@H](O[C@H]2[C@H](O)[C@@H](O[C@H]3OC[C@](C)(O)[C@H](NC)[C@H]3O)[C@H](N)C[C@@H]2N)O1	-20.8% (inactive)
O=S(=O)(O)Oc1ccc(C(c2ccc(OS(=O)(=O)O)cc2)c2ccccn2)cc1	-9.15% (inactive)
CC(=O)[C@@]1(O)CC[C@H]2[C@@H]3C=C(Cl)C4=CC(=O)CC[C@]4(C)[C@H]3CC[C@@]21C	-22.6% (inactive)
OC(CN1CCCCC1)c1cc(-c2ccccc2)on1 (stereo unspecified)	-0.851% (inactive)

Please look at the following compound next.
According to the records, this compound CC[C@H](C)CCCCC(=O)N[C@@H](CCN)C(=O)N[C@H](C(=O)N[C@@H](CCN)C(=O)N[C@H]1CCNC(=O)[C@H]([C@@H](C)O)NC(=O)[C@H](CCN)NC(=O)[C@H](CCN)NC(=O)[C@H](CC(C)C)NC(=O)[C@@H](CC(C)C)NC(=O)[C@H](CCN)NC1=O)[C@@H](C)O (X2-[Dab]T[Dab][Dab][Dab][dL]L[Dab][Dab]T; lactam 4-C) displays activity, negative = cell killing of 12.6% (inactive)

----------
System: NIH3T3
Test protocol: Cytotoxic Profiling of Annotated Libraries Using Quantitative High-Throughput Screening (AID 1296008); note: % is set by controls: 0 for no effect and ±100 for the full control effect; nearly all actives have a fitted effect of over 60% in size
Condition summary: Five cell lines viability, CellTiter-Glo ATP luminescence, 48-72 h; stronger effect = lower value
Records with an inconclusive call do not appear.
Recorded max response for the following molecules
Numeric answer only, unit % assumed.

# example entries with known answers
C[C@@H]1C[C@H](C)CN(CCC(=O)Nc2ccc(Br)cc2)C1	-17.9
CC(NCCCc1cccc(C(F)(F)F)c1)c1cccc2ccccc12 (centres undefined)	3.68
CNC(=O)[C@@H](c1ccccc1)N1CCc2cc(OC)c(OC)cc2[C@@H]1CCc1ccc(C(F)(F)F)cc1	-22.6
CC(=O)[C@H]1CC[C@H]2[C@@H]3CC=C4C[C@@H](OS(=O)(=O)O)CC[C@]4(C)[C@H]3CC[C@]12C	-4.15
C[C@@H](c1ccc2nccn2c1)n1nnc2ncc(-c3cnn(C)c3)nc21	-14.7

The reported max response of the molecule O=S1(=O)CCN(Cc2cc(NCC3CCOCC3)c3[nH]c(-c4ccccc4)cc3c2)CC1 was -21.1

max response reported for this molecule CNC(=O)c1ccc2c(c1)CCO[C@H]2CCN1CCN(c2ccc(OC)cc2)CC1 : 2.66

molecule Cc1cc2c(c(=O)o1)C=C1CC[C@H]([C@H](C)Cn3cnc(=N)c4[nH]cnc43)C[C@@H]1O2 , max response observed: -1.79

So for Cc1ccc(S(=O)(=O)NCc2ccc(C(=O)NCCN(Cc3ccccc3)C(C)C)cc2)cc1 , the logged max response turned out to be -5.87

Taken from PubChem BioAssay (NCATS).
